- Test system: U2OS
- assayExplanation: Multiplex assay against U2OS
- Type: toxicity, cell-based
- assayContext: human, 12 h, 10 µM, compound concentration 10 uM, replicate 2
Overview of reported Population Fragmented Nuclei (%) across a group of compounds:
quantityKind: Population Fragmented Nuclei (%)

>  <compound>
Cc1nc(Cc2cccc(C(F)(F)F)c2)sc1-c1ccc(C(N)=O)nc1 [TP-024n]

>  <quantityKind>
Population Fragmented Nuclei (%)

>  <testValue>
17

$$$$
>  <compound>
Nc1nc2c(c(N3CCNCC3)n1)CCC1=C2[C@@H]2CCCC[C@@H]2O1

>  <quantityKind>
Population Fragmented Nuclei (%)

>  <testValue>
9

$$$$
>  <compound>
CC(C)(C)c1cnc(CSc2cnc(NC(=O)C3CCNCC3)s2)o1 [BMS-387032]

>  <quantityKind>
Population Fragmented Nuclei (%)

>  <testValue>
19

$$$$
>  <compound>
CC(=O)c1cc(-c2cc(C(=O)NC3CC3)ccc2C)c2ncccn12

>  <quantityKind>
Population Fragmented Nuclei (%)

>  <testValue>
11

$$$$
>  <compound>
Cc1cn(-c2cc(NC(=O)c3ccc4c(c3)CN(c3cncnc3)C[C@@H]4C)cc(C(F)(F)F)c2)cn1

>  <quantityKind>
Population Fragmented Nuclei (%)

>  <testValue>
10

$$$$
>  <compound>
CN(C)CCOc1ccc(-c2nc(-c3ccncc3)c(-c3ccc4c(c3)CC/C4=N\O)[nH]2)cc1 [SB590885]

>  <quantityKind>
Population Fragmented Nuclei (%)

>  <testValue>
6

$$$$
>  <compound>
CNC(=O)c1cc(Oc2ccc(NC(=O)Nc3cc(C(C)(C)C)nn3-c3ccc4ncccc4c3)c(F)c2)ccn1 [REBASTINIB]

>  <quantityKind>
Population Fragmented Nuclei (%)

>  <testValue>
8

$$$$
>  <compound>
c1ccc2oc(-c3csc(C4CCN(Cc5nc6ncccc6[nH]5)CC4)n3)cc2c1

>  <quantityKind>
Population Fragmented Nuclei (%)

>  <testValue>
7

$$$$
>  <compound>
Cl.Cl.Nc1ncnc2c1c(-c1cccc(OCc3ccccc3)c1)cn2[C@H]1C[C@@H](CN2CCC2)C1

>  <quantityKind>
Population Fragmented Nuclei (%)

>  <testValue>
22

$$$$

----------
- Test system: Fibroblast
- assayExplanation: Multiplex assay against human fibroblast
- Type: toxicity, cell-based
- assayContext: 12 h, 1 µM, compound concentration 1 uM, replicate 2
Cut-off 80% on Population Normal (%): below means label 1, at or above means label 0.

>  <compound>
CCn1c(-c2nonc2N)nc2cnc(Oc3cccc(NC(=O)c4ccc(OCCN5CCOCC5)cc4)c3)cc21 [GSK-269962A]

>  <label>
label 0

$$$$
>  <compound>
O=C(O)c1ccc2cc(-c3ccc(O)c(C45CC6CC(CC(C6)C4)C5)c3)ccc2c1

>  <label>
label 0

$$$$
>  <compound>
COc1cc2c(NC3CCN(C(C)C)CC3)nc(N3CCC(F)(F)CC3)nc2cc1OCCCN1CCCC1

>  <label>
label 0

$$$$
>  <compound>
CC(C)N1CCC(C)(C)c2cc(C#Cc3ccc(C(=O)O)cc3)ccc21

>  <label>
label 0

$$$$
>  <compound>
CC(=O)c1cc(-c2cc(C(=O)NC3CC3)ccc2C)c2ncccn12

>  <label>
label 0

$$$$
>  <compound>
Cc1cc2c(cc1N1C(=O)c3cccc4c(CCCO)ccc(c34)C1=O)n(C)c(=O)n2C

>  <label>
label 0

$$$$
>  <compound>
CCOc1cc(N2CCC(O)CC2)ccc1Nc1ncc2c(n1)N(C1CCCC1)CCC(=O)N2C

>  <label>
label 1

$$$$
>  <compound>
CNC(=O)c1cc(Oc2ccc(NC(=O)Nc3cc(C(C)(C)C)nn3-c3ccc4ncccc4c3)c(F)c2)ccn1

>  <label>
label 1

$$$$
>  <compound>
CNC(=O)c1nn(C)c2c1C(C)(C)Cc1cnc(Nc3ccc(N4CCN(C)CC4)cc3)nc1-2

>  <label>
label 1

$$$$
>  <compound>
COc1ccc(NS(=O)(=O)c2sc3ccc(Cl)cc3c2C)cc1N1CCNCC1.Cl

>  <label>
label 0

$$$$
>  <compound>
CN(C)C/C=C/C(=O)Nc1cc2c(Nc3ccc(F)c(Cl)c3)ncnc2cc1O[C@H]1CCOC1.O=C(O)/C=C\C(=O)O.O=C(O)/C=C\C(=O)O [AFATINIB DIMALEATE]

>  <label>
label 1

$$$$
>  <compound>
c1ccc2oc(-c3csc(C4CCN(Cc5nc6ncccc6[nH]5)CC4)n3)cc2c1

>  <label>
label 1

$$$$
>  <compound>
CC(C)Oc1ccc(C(=O)N[C@H](CNC(=O)CN(C)C)Cc2ccc(-c3cn4cccc([C@H](C)O)c4n3)cc2)cc1Cl [GSK-923295A]

>  <label>
label 1

$$$$
>  <compound>
COc1cc2c(Nc3ccc(NC(=O)c4ccccc4)cc3)ncnc2cc1OCCCN1CCOCC1

>  <label>
label 1

$$$$
>  <compound>
CCC(=O)O[C@]1(C(=O)SCF)[C@H](C)C[C@H]2[C@@H]3C[C@H](F)C4=CC(=O)C=C[C@]4(C)[C@@]3(F)[C@@H](O)C[C@@]21C [FLUTICASONE PROPIONATE]

>  <label>
label 0

$$$$
>  <compound>
COc1cc(N2CCC(N(C)C)CC2)ccc1Nc1ncc(Cl)c(Nc2ccccc2P(C)(C)=O)n1

>  <label>
label 1

$$$$
